Target: UniProt Q06710
Sequence (Q06710 whole entry): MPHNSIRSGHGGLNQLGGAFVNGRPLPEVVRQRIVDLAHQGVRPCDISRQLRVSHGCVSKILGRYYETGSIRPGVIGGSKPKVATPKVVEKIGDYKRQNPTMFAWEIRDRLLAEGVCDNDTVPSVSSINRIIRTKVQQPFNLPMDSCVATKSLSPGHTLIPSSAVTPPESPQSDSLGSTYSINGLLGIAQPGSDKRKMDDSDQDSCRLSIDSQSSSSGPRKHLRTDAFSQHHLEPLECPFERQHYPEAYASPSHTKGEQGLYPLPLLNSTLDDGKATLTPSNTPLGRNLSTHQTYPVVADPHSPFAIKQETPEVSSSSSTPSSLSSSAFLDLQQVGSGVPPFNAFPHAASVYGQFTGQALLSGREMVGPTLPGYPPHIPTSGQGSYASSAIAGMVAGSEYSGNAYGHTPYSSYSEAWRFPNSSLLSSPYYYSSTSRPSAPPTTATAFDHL
Experiment: PAX8 transcriptional activity inhibition in RMG-I – RMG-I cells, luciferase, cherry-pick, dose response (AID 687027);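 also: luciferase reporter driven by Pax8 target thyroperoxidase promoter measured by SteadyGlo luminescence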
Format: functional, cell-based
Activity calls are given as the source filed them. No rule for the calls is given here.
assayMetric: AC50

Sample answers from the record:
In [3]: df
Out[3]:
                                   compound  assaymetric         testvalue
0  C[C@H](CO)N1C[C@H](C)[C@H](CN(C)Cc2ccc(Cl)c(Cl)c2)Oc2c(NS(=O)(=O)c3ccc(Cl)cc3)cccc2C1=O         AC50  13.7 µM (active)
1  O=S(=O)(c1ccccc1)N1CCCCN2[C@H](CO)[C@H](c3ccc(-c4ccccc4F)cc3)[C@H]2C1         AC50  33.7 µM (active)
2  COc1ccc(N(C(=O)CCl)C(C(=O)NCCc2ccccc2)c2cccs2)cc1 (stereo not drawn)         AC50  2.44 µM (active)
3  COc1ccc(CN(C)C[C@@H]2OCCCC[C@@H](C)Oc3ccc(NC(=O)Nc4ccc(C(F)(F)F)cc4)cc3C(=O)N([C@@H](C)CO)C[C@H]2C)cc1         AC50  8.11 µM (active)
4  CC(C)CC1NC(=S)N(Cc2ccccc2)C1=O (stereo not drawn)         AC50  6.46 µM (active)

Reported UniProt Q06710 AC50 for item COc1ccc(C#Cc2ccc([C@@H]3[C@H](CO)N4CCCCN(C(=O)Nc5ccc(F)cc5)C[C@@H]34)cc2)cc1 was 15.5 µM (active)

Reported UniProt Q06710 AC50 for item O=C1CN(C(=O)Cn2ncc(Cl)c(Cl)c2=O)c2ccccc2N1 was 2.19 µM (active)

Reported UniProt Q06710 AC50 for item COc1ccccc1NC(=O)N1CCCCN2[C@@H](CO)[C@@H](c3ccc(-c4cccc(C)c4)cc3)[C@@H]2C1 was 13.2 µM (active)
